src = paper PMC12465524

# Target Under Test: Leucine-Rich Repeat Kinase 2 (LRRK2) WDR40 domain (Homo sapiens, UniProt Q5S007)
# Construct: WDR40 domain
# Sequence (Q5S007 2142-2527 limits assumed): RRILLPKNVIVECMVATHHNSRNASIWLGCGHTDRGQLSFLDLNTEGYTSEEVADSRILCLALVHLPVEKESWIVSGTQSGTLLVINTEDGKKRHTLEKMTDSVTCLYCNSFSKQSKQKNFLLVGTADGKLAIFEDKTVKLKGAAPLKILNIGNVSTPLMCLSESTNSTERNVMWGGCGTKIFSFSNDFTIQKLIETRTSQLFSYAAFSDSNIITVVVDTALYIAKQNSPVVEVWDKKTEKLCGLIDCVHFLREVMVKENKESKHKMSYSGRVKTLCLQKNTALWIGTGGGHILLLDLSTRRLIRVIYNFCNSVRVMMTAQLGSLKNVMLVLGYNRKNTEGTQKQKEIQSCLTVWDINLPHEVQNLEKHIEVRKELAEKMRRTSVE
# Measurement Notes: SPR (not confirmed by orthogonal assays)
# Format: binding
Endpoint Name: pKd
Reminder that pKd means the negative base-10 logarithm of the concentration expressed in mol/L.

Q. Which measured pKd belongs to O=c1[nH]c2ccc(CNc3cccc(-n4cnnn4)c3)cc2[nH]1 [B, compound B] , tested on Leucine-Rich Repeat Kinase 2 (LRRK2) WDR40 domain (Homo sapiens, UniProt Q5S007)?
A. 4.46

The record that follows has no pKd shown yet.
Q. Which measured pKd belongs to Cn1nnc(-c2ccccc2)c1CNc1cccc(-n2cnnn2)c1 [A] , tested on Leucine-Rich Repeat Kinase 2 (LRRK2) WDR40 domain (Homo sapiens, UniProt Q5S007)?
A. 4.23

---

# Target Under Test: Leucine-Rich Repeat Kinase 2 (LRRK2) WDR40 domain (Homo sapiens, UniProt Q5S007)
# Construct: WDR40 domain
# Measurement Notes: SPR; weak DSF stabilization (ΔTm […] °C)
# Type: binding
Endpoint Name: Kd (µM)
Give a bare numeral; the unit µM is implied.

Q. I'd like to know its Kd. The compound in question is "CSc1ccc(CNc2cccc(-n3cnnn3)c2)cc1"
A. 100
